tested on: epimastigotes of T. cruzi (CL strain lacZ); assay: microbe, parasite or virus in culture; format: cell-based; settings: Trypanosoma cruzi
assay-readout: EC50 (µM)

- O=C(Cn1ccnc1[N+](=O)[O-])NCc1ccccc1: 25.3

====

test system: HEK cells; experiment: Cytotoxicity on HEK cells; conditions: read-out: CC50 HEK; concentration that causes 50% cell death
assay-readout: CC50 (µM)

* O=C(Nc1ccc(N=c2[nH]c3ccccc3[nH]2)c(Cl)c1)c1ccc(N=c2[nH]c3ccccc3[nH]2)cc1Cl | 10.2

====

assay: Cytotoxicity on L929 cells; type: cell-based; details: mouse
assay-readout: EC50 at 72 h

• O=C(Cn1ccnc1[N+](=O)[O-])NCc1ccccc1 = > 200 µM
• N=C(Nc1ccc(CCc2ccc(NC(=N)c3ccccn3)cc2)cc1)c1ccccn1 = > 200 µM
